# TARGET_OR_TEST_SYSTEM: 4-hydroxy-3-methylbut-2-enyl diphosphate reductase (Aquifex aeolicus (strain VF5), UniProt O67625)
# Sequence (O67625 whole entry): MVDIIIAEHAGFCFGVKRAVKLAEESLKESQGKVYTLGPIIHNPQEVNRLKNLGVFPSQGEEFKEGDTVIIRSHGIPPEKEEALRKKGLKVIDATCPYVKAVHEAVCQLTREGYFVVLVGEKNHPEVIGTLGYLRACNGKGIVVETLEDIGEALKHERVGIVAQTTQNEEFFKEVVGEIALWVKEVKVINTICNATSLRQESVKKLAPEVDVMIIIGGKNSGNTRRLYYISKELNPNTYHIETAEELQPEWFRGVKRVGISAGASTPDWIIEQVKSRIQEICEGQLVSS
# PROCEDURE_SUMMARY: Inhibition of Aquifex aeolicus IspH expressed in Escherichia coli BL21 (DE3) using HMBPP substrate
pIC50: −log10 of the molar value.
Criterion: pIC50 meeting or surpassing 4. Met: Met. Not met: Not met.

Solved entries (count: 8):
CC(Cc1cccnc1)(P(=O)(O)O)P(=O)(O)O = Not met
Cc1ccnc(NC(P(=O)(O)O)P(=O)(O)O)c1 = Met
C#CCOP(=O)(O)OP(=O)(O)O [PROP-2-YNYL DIPHOSPHATE] = Met
Cc1ccc[n+](CC(O)(P(=O)([O-])O)P(=O)(O)O)c1 (stereo not given) = Not met
O=P(O)(O)OP(=O)(O)OCCc1cccnc1 [PYRIDIN-3-YL-ETHYL-DIPHOSPHATE] = Met
C#CCCOP(=O)(O)OP(=O)(O)O [BUT-3-YNYL DIPHOSPHATE] = Met
O=P(O)(O)OP(=O)(O)OCCCc1cccnc1 [PYRIDIN-3-YL-PROPYL-DIPHOSPHATE] = Not met
O=P(O)(O)OP(=O)(O)OCc1cccnc1 = Met

## Task I'd appreciate it if you could say whether C[n+]1cccc(CC(O)(P(=O)(O)O)P(=O)(O)O)c1 has pIC50 at least equal to 4.
## Result Not met

## Task I'd appreciate it if you could say whether N#CCCOP(=O)(O)OP(=O)(O)O [2-CYANOETHYL DIPHOSPHATE] has pIC50 at least equal to 4.
## Result Met

---

# TARGET_OR_TEST_SYSTEM: 4-hydroxy-3-methylbut-2-enyl diphosphate reductase (Aquifex aeolicus (strain VF5), UniProt O67625)
# Sequence (O67625 whole entry): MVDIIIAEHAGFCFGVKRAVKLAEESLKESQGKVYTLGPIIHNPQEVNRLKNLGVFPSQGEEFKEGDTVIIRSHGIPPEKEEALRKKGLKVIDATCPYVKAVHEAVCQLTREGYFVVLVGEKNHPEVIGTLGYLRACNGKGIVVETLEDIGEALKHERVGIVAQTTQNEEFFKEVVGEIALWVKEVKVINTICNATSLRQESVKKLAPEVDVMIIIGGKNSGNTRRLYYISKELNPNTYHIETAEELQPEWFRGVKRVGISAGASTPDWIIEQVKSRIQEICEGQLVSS
# PROCEDURE_SUMMARY: Inhibition of Aquifex aeolicus IspH expressed in Escherichia coli BL21 (DE3) using HMBPP substrate
pIC50: −log10 of the molar value.
Criterion: pIC50 meeting or surpassing 3. Met: true (1). Not met: false (0).

Solved entries (count: 5):
O=P(O)(O)C(CNc1ccccn1)P(=O)(O)O = false (0)
O=P(O)(O)OP(=O)(O)OCc1ccncc1 [(PYRIDIN-4-YL)-METHYL-DIPHOSPHATE] = true (1)
N#CCOP(=O)(O)OP(=O)(O)O [CYANOMETHYL DIPHOSPHATE] = true (1)
O=P(O)(O)OP(=O)(O)OCc1ccc(Cl)nc1 = false (0)
O=P(O)(O)C(O)(Cc1cccnc1)P(=O)(O)O = false (0)

## Task I'd appreciate it if you could say whether O=P(O)(O)C(Cc1cccnc1)P(=O)(O)O has pIC50 at least equal to 3.
## Result false (0)

## Task I'd appreciate it if you could say whether O=P(O)(O)OP(=O)(O)OCC#CCO [4-HYDROXYBUT-2-YNYL DIPHOSPHATE] has pIC50 at least equal to 3.
## Result true (1)

## Task I'd appreciate it if you could say whether O=P(O)(O)C(O)(Cc1ccccn1)P(=O)(O)O has pIC50 at least equal to 3.
## Result true (1)

## Task I'd appreciate it if you could say whether C#CCCCOP(=O)(O)OP(=O)(O)O [PENT-4-YNYL DIPHOSPHATE] has pIC50 at least equal to 3.
## Result true (1)
